Biological target: 5-lipoxygenase/FLAP (Homo sapiens, UniProt P09917+P20292)
Sequence (P09917 whole entry): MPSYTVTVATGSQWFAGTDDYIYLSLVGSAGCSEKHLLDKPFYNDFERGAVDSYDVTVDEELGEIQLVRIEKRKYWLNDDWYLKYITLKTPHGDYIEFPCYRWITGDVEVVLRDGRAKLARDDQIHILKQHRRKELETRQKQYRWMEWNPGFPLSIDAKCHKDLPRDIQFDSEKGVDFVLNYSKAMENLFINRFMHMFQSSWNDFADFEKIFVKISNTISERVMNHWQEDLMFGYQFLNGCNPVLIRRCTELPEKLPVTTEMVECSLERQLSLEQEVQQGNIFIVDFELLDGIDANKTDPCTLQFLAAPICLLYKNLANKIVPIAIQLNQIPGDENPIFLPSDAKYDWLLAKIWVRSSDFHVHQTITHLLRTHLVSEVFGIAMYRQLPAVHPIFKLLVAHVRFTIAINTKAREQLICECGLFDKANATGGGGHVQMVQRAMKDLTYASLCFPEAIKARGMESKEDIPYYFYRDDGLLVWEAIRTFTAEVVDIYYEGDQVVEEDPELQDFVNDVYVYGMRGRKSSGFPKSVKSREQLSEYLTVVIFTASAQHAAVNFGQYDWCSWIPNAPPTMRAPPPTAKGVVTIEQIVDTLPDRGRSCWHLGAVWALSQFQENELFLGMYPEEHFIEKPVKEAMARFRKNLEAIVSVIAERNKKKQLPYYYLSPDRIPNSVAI
Sequence (P20292 whole entry): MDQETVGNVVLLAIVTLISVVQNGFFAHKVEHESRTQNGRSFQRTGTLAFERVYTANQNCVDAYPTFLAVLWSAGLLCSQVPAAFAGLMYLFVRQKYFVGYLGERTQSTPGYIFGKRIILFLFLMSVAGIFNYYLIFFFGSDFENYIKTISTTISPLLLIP
Assay: Inhibition of calcium ionophore (A23187) stimulated LTB4 formation in human neutrophils
Format: functional
pIC50: −log10 of the molar value.
observable: pIC50

CC(C)c1ccc2c(c1)c(SC(C)(C)C)c(CC(C)(C)/C=N/OCC(=O)O)n2Cc1ccc(Cl)cc1 = 10.00
CC(C)(C)Sc1c(CC(C)(C)C(=O)O)n(Cc2ccc(Cl)cc2)c2ccc(OCc3cccnc3)cc12 = 7.77

P. CC(C)(C)Sc1c(CC(C)(C)C(=O)O)n(Cc2ccc(Cl)cc2)c2ccc(OCc3cscn3)cc12
Q. CO/N=C/C(C)(C)Cc1c(SC(C)(C)C)c2cc(C(C)C)ccc2n1Cc1ccc(Cl)cc1
Two entries are listed, P and Q . Which one carries the higher pIC50? Could you answer with the label of the item you picked?
Q
(Q: 9.47, P: 8.40)

A. CC(C)(/C=N/OCC(=O)O)Cc1c(SC(C)(C)C)c2cc(OCc3ccccn3)ccc2n1Cc1ccc(Cl)cc1
B. CC(C)c1ccc2c(c1)c(SC(C)(C)C)c(CC(C)(C)NC(=O)N(C)O)n2Cc1ccc(Cl)cc1
C. CC(C)(C)Sc1c(CC(C)(C)C(=O)O)n(Cc2ccc(Cl)cc2)c2ccc(OCc3ccc4ccccc4n3)cc12 [QUIFLAPON]
Arrange these compounds by their pIC50, starting with the largest number. Labels, requested order.
B, C, A
